target: Tubulin; assay: Inhibition of tubulin polymerization (unknown origin)
READOUT_NAME: IC50 (µM)

STRUCTURE_AS_SMILES | UNITS_TEXT | MEASUREMENT
COc1ccc(/C=C\c2cc(OC)c(OC)c(OC)c2)cc1OCc1ccc(CC=O)cc1 | µM | 16.1

---

test: Inhibition of LAG-3/MHC-II (unknown origin) interaction by TR-FRET assay; design: species or system Homo sapiens
READOUT_NAME: IC50 (µM)

STRUCTURE_AS_SMILES | UNITS_TEXT | QUALIFIER_SYMBOL | MEASUREMENT
Cc1cc(C(=O)COc2ccc(NC(=O)c3ccco3)cc2)c(C)n1Cc1ccccc1 | µM | = | 4.2
Cc1cc(C(=O)COc2ccc(NC(=O)c3ccco3)cc2)c(C)n1-c1ccccc1 | µM | = | 8.3
CC(=O)Nc1ccc(OCC(=O)c2cc(C)n(C(C)C)c2C)cc1 | µM | > | 50

---

assay: Binding affinity to PD-L1 (unknown origin) assessed as dissociation constant; set-up: species or system Homo sapiens

STRUCTURE_AS_SMILES | UNITS_TEXT | Kd
Cc1cc(O)n(-c2ccccc2)n1 | µM | 0.098
Oc1cc(-c2ccc(C(F)(F)F)cc2)nn1-c1ccccn1 | µM | 0.156
Oc1cc(-c2ccc(Cl)cc2Cl)nn1-c1ccccn1 | µM | 0.11
Oc1cc(-c2cccc(C(F)(F)F)c2)nn1-c1ccccn1 | µM | 1.2

---

experiment: Inhibition of VISTA/VSIG-3 (unknown origin) protein-protein interaction by TR-FRET assay
pIC50: −log10 of the molar value.

STRUCTURE_AS_SMILES | pIC50
CN(C)c1n/c(=N/Cc2ccco2)ss1 | 5.01

---

IC50 values by entry
experiment: Inhibition of CTLA-4/CD80 (unknown origin) protein-protein interaction; parameters: species or system Homo sapiens
READOUT_NAME: IC50 (nM)

COMPOUND | MEASUREMENT
COc1ccc(-c2nc(CO/N=C/c3ccccc3Cl)co2)cc1 | 1500
O=[N+]([O-])c1cccc(/C=N/OCc2csc(-c3ccccc3)n2)c1 | 4500
COc1ccccc1C1CN(c2ccccc2)N=C1c1cccs1 (stereo unspecified) | 1900
Clc1ccc(C2=NN(Cc3ccccc3)CC2c2ccccc2)cc1 (stereo unspecified) | 970
C/C(=N\OCC(=O)Nc1ccc(C)c(F)c1)c1nc(-c2ccccc2)[nH]c1C | 1400
O=C(CSc1ccccc1Cl)N1N=C(c2cccs2)CC1c1ccco1 (stereo unspecified) | 1300
